Target: GPR139 (Homo sapiens, UniProt Q6DWJ6)
Sequence (Q6DWJ6 1-353): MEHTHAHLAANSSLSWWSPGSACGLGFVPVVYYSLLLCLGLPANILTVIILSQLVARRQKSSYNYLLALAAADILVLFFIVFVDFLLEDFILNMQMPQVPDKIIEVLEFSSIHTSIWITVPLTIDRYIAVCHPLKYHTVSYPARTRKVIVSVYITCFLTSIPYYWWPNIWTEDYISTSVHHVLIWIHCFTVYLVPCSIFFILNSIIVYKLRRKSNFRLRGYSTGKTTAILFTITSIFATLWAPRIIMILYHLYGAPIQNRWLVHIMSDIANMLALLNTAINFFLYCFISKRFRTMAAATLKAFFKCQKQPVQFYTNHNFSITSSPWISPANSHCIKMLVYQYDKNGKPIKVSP
Assay: Fluo-4 Ca2+-assay in CHO-k1 cells stably expressing GPR139 (CHO-GPR139)
Format: cell-based
Details: values in Figure 5 and Supplementary Chart 1
readout name: pEC50
The quantity pEC50 is defined as the negative base-10 logarithm of the molar concentration.

Data request, read-out pEC50, for CCn1c(C)nc2cc(C(=O)NNC(=O)CC(C)c3ccccc3)ccc21 (stereo not shown) 5.33
